Hey, just so you know, these numbers are from PubChem BioAssay AID1851.

# system.name: Cytochrome P450 2C19 (Homo sapiens)
# method.notes: Cytochrome panel assay with activity outcomes
# test.settings: recombinant CYP, pro-luciferin dealkylation, luminescence, p450-cyp2c19; series mostly up to 57.1 µM
Hit rate of the full screen: of about 16,000 compounds, about 5,800 (36%) were called active. Another 23% or so got no clear call; they are omitted. The call rests on the fitted dose curve; in most records, active means well fitted curve in the direction sought with a large enough effect; inconclusive means small, poorly fitted or top-dose-only effect, or effect the other way; inactive means no such curve, though single readings can be large or run the other way. The list shows a part of the results.
Form entry, call: pick from active, inactive

Ask | Each compound tested received a call. Report the one for C=CCn1c(=O)c2c(nc(Br)n2Cc2ccccc2Cl)n(C)c1=O .
Reply | active

Ask | State the result this test recorded for O=C(c1ccccc1)c1cc(F)c(N2CCOCC2)cc1Cl .
Reply | active

Ask | What outcome does the record of this test show for CN1CCN(c2ncncc2-c2ccccc2C(F)(F)F)CC1 ?
Reply | active

Ask | Record request — test call for Cc1nc2ccccc2c(=O)n1NC(=O)c1ccccc1Cl
Reply | active

Ask | What is the recorded call for this compound in the test? Cc1nc2cnc(Oc3ccccc3)nc2n(CCc2ccccc2)c1=O
Reply | inactive

Ask | # lookup: test call for COc1ccc2cc(CCNC(=O)C3CC3)c(=O)[nH]c2c1
Reply | inactive

Ask | Could you kindly confirm the outcome this assay logged for Cc1ccc(C(=O)/C=C/c2c[nH]c3ccccc23)cc1 ?
Reply | active

Ask | Query: recorded result category for COC(=O)c1sccc1NC(=O)CN(C)NS(=O)(=O)c1ccc(F)cc1 in this test
Reply | active

Ask | Tell me the assay call for COc1ccc(-c2nc3cnc(N4CCNCC4)nc3n(C3CC3)c2=O)cc1 please.
Reply | inactive

Ask | Per the assay record, what outcome was assigned to CCOC(=O)COc1ccc(/C=C/[N+](=O)[O-])c(OCC(=O)OCC)c1 ?
Reply | active

Ask | For COc1ccc(C(=O)N2CCC3(CCCN(C)C3)CC2)cc1 , which call appears in the assay record?
Reply | inactive

Ask | So what was the verdict on CN1CCN(c2cc(-c3ccccc3C(F)(F)F)ncn2)CC1 in this test?
Reply | active

Ask | Assay result, entry CC(C)NC(=O)c1ccc2c(=O)n(Cc3ccco3)c(=S)[nH]c2c1 — outcome?
Reply | inactive

Ask | Hey, what did the test say about CN(C)C(=O)c1ccc(-c2ccc3ncnc(Nc4ccccc4)c3c2)cc1 ?
Reply | inactive

Ask | Test call, this compound: O=C(CCn1nc(-c2ccc(Cl)cc2)ccc1=O)NCc1ccccn1
Reply | inactive

Ask | Short answer needed: outcome of this test for O=C(CCN1C(=O)C2C3C=CC(C3)C2C1=O)NCCN1CCCc2ccccc21 (stereo unspecified) ?
Reply | active

Ask | Could you check what this test reported for C=CCn1cc(Cl)c(=O)n(CC=C)c1=O ?
Reply | inactive

Ask | How was COc1ccc(N2CCN(Cc3nc4c(c(=O)n(C)c(=O)n4C)n3CC(C)=O)CC2)cc1 classified in this test?
Reply | inactive

Ask | What call does the record list for COc1ccc(-n2c(=O)c(CCc3ccccc3)nc3cnc(OC)nc32)cc1 ?
Reply | active

Ask | Short answer needed: outcome of this test for C=CC[C@H](N)C(=O)O ?
Reply | inactive

Ask | Give the logged outcome of this assay for the following compound: O=C(CCc1nc(-c2ccccc2)no1)NCCc1ccccc1
Reply | active

Ask | What did this assay record as the result for COc1cccc(-c2ccc3ncnc(Nc4ccccc4)c3c2)c1 ?
Reply | active

Ask | Returns: the outcome recorded for COc1ccc(-c2nc3cnc(OC)nc3n(-c3ccc(OC)cc3)c2=O)cc1 in this assay.
Reply | inactive

Ask | Recorded test call requested for CSc1ccc(CNc2ccccc2)cc1
Reply | active

Ask | What classification did FC(F)(F)c1ccccc1-c1cc(NCCN2CCOCC2)ncn1 end up with in this test?
Reply | inactive

Ask | Which outcome was assigned to CSc1nc(Oc2ccc(=O)[nH]n2)nc(N(C)C)n1 in this test?
Reply | inactive
